meta.source: ChEMBL document CHEMBL1134194

Field: IC50. Provide a value for each of the compounds that follow.
Molecular target: Human immunodeficiency virus type 1 reverse transcriptase (Human immunodeficiency virus 1, UniProt Q72547, K103N/Y181C)
Experiment: Inhibitory activity against non-nucleoside reverse transcriptase inhibitors (NNRTI) -resistant HIV-1 strain A17 variant with Y181C plus K103N mutations in RT (reverse transcriptase)
One number for each entry, in µM.

The examples below pair each entry with its known result.
S=C(NCCc1cccs1)Nc1ccc(Br)cn1 :: 3.3
S=C(NCC12CC3CC(CC(C3)C1)C2)Nc1nccs1 :: 1.3

Read the next record carefully.
[Q] Form field: reported IC50 of `S=C(NCc1ccco1)Nc1nccs1`
[A] 0.6

----------
Can you tell me CC50 for the items I'm about to list?
Test: Cytotoxic concentration was evaluated against human peripheral blood mononuclear cells (PBMC)
Format: functional

In the examples that follow, each entry is paired with its recorded CC50.
S=C(NCCc1cccs1)Nc1ccc(Br)cn1 :: > 100 µM
S=C(NCCc1c[nH]c2ccccc12)Nc1nccs1 :: 28 µM

Consider the additional compound presented here.
[Q] Endpoint output: CC50 of `S=C(NCCOc1ccccc1)Nc1nccs1` . Value?
[A] > 100 µM

----------
Test: Cytotoxic concentration was evaluated against human peripheral blood mononuclear cells (PBMC)
Assay type: functional
Record form. Attribute: CC50. Fill in for each entry.

Oc1ccc(CCNC(=S)Nc2ccc(Br)cn2)cc1 :: > 100 µM
S=C(NCc1ccco1)Nc1nccs1 :: > 100 µM
Cc1ccc(CC/N=C(\S)Nc2nccs2)cc1 :: > 100 µM
S=C(NCCc1ccccn1)Nc1nccs1 :: 100 µM
S=C(NCCc1cccs1)Nc1nccs1 :: 71 µM

State the recorded CC50 for every item in the following list.
1. S=C(NCC12CC3CC(CC(C3)C1)C2)Nc1nccs1
2. S=C(NCCCn1ccnc1)Nc1nccs1

[A]
1: 40 µM; 2: 35 µM
